# Target Of Assay: human DP2 receptor (Homo sapiens, UniProt Q9Y5Y4)
# Sequence (Q9Y5Y4 whole entry): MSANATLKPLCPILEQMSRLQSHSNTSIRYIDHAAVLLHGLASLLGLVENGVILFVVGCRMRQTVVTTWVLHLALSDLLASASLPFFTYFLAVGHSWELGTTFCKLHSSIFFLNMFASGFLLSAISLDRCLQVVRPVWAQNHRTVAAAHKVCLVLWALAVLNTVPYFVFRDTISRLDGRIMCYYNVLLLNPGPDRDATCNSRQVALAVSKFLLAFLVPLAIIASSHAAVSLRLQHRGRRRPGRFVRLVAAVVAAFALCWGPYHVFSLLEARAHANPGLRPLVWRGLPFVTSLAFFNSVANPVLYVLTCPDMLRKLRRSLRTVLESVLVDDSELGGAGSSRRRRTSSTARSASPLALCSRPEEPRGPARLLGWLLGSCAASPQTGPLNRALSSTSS
# Assay Procedure: DP2/CRTH2 binding assay ([3H]PGD2 radioligand)
# Test Conditions: membranes of HEK293 cells expressing recombinant human DP2, 1 nM [3H]PGD2; read-out: hDP2
Form field: IC50 (one value per entry).

> print(dat)
                                   compound                           target.of.assay  endpoint.result
1  CC(C)SCc1cc(NC(=O)C(C)(C)C)ccc1Oc1cc(CC(=O)O)cc(C(F)(F)F)c1  human DP2 receptor (Homo sapiens, UniProt Q9Y5Y4)         < 300 nM
2  COc1ccc(CC(=O)O)cc1Oc1ccc(NC(=O)c2ccc(C(F)(F)F)cc2)cc1CSCC(F)(F)F  human DP2 receptor (Homo sapiens, UniProt Q9Y5Y4)         < 300 nM
3  COc1ccc(CC(=O)O)cc1Oc1ccc(NC(=O)C(C)(C)C)cc1C[S+]([O-])C(C)C (centres unmarked)  human DP2 receptor (Homo sapiens, UniProt Q9Y5Y4)         < 300 nM
4  COc1ccc(CC(=O)O)cc1Oc1ccc(NS(=O)(=O)c2cccc3c(N(C)C)cccc23)cc1CSC(C)(C)C  human DP2 receptor (Homo sapiens, UniProt Q9Y5Y4)   300 to 1000 nM
5  COc1ccc(CC(=O)O)cc1Oc1ccc(C(=O)NCC(C)(C)C)cc1CSC(C)(C)C  human DP2 receptor (Homo sapiens, UniProt Q9Y5Y4)   300 to 1000 nM
6  CC(C)(C)C(=O)Nc1ccc(Oc2cc(Cl)cc(CC(=O)O)c2)c(CS(=O)(=O)C(C)(C)C)c1  human DP2 receptor (Homo sapiens, UniProt Q9Y5Y4)         < 300 nM

Task: Please look at this compound and report its IC50: `CC(C)SCc1cc(NC(=O)C(C)(C)C)ccc1Oc1cc(Cl)cc(CC(=O)O)c1`
Output: < 300 nM

Task: Please look at this compound and report its IC50: `COc1ccc(CC(=O)O)cc1Oc1ccc(NC(=O)c2ccc(Cl)cc2)cc1CSC(C)(C)C`
Output: < 300 nM
